Experiment: self-splicing fitness, log relative to wild type (ln ratio); higher = more splicing; Tetrahymena group I intron in knt gene, E. coli kanamycin selection, DiMSum; sequences stand for … in CUCUCU…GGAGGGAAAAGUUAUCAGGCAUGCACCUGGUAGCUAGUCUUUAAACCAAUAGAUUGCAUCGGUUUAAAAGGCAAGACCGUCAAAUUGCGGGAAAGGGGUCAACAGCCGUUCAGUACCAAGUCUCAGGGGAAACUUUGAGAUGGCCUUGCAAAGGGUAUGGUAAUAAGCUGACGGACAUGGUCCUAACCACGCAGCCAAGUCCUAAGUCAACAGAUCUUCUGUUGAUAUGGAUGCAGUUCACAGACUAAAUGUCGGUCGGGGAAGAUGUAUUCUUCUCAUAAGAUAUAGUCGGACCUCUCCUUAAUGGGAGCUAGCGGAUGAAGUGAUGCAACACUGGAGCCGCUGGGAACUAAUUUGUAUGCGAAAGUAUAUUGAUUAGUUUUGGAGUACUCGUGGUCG;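 note: selection with 25 µg/mL kanamycin versus none on LB agar overnight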
Conditions: 30 °C
The following sequences are shown together with reported self-splicing fitness (ln) values.
reported-endpoint: self-splicing fitness (ln)

{"chain-sequence": "UCUCAGCAAUAUUACGUGGG", "reported-endpoint": "self-splicing fitness (ln)", "quantitative-result": -3.43}
{"chain-sequence": "UUAAAGCAAUAUUACGAGCG", "reported-endpoint": "self-splicing fitness (ln)", "quantitative-result": -0.119}
{"chain-sequence": "UUGCAGCAAUAUUACGAAAU", "reported-endpoint": "self-splicing fitness (ln)", "quantitative-result": -2.39}
{"chain-sequence": "GUAAAGCAAUAUUACGGGUC", "reported-endpoint": "self-splicing fitness (ln)", "quantitative-result": -1.78}
{"chain-sequence": "AUAAAGCAAUAUUACGGCCA", "reported-endpoint": "self-splicing fitness (ln)", "quantitative-result": 0.232}
{"chain-sequence": "CGAGAGCAAUAUUACGCCUU", "reported-endpoint": "self-splicing fitness (ln)", "quantitative-result": -3.73}
{"chain-sequence": "AGAAAGCAAUAUUACGCGCU", "reported-endpoint": "self-splicing fitness (ln)", "quantitative-result": -0.789}
{"chain-sequence": "CAUAAGCAAUAUUACGGUCA", "reported-endpoint": "self-splicing fitness (ln)", "quantitative-result": -2.41}
{"chain-sequence": "GAGUAGCAAUAUUACGGCUC", "reported-endpoint": "self-splicing fitness (ln)", "quantitative-result": -2.59}
{"chain-sequence": "ACAUAGCAAUAUUACGCUUU", "reported-endpoint": "self-splicing fitness (ln)", "quantitative-result": -2.82}
{"chain-sequence": "GUAUAGCAAUAUUACGCCCC", "reported-endpoint": "self-splicing fitness (ln)", "quantitative-result": -1.21}
{"chain-sequence": "ACUAAGCAAUAUUACGAGGC", "reported-endpoint": "self-splicing fitness (ln)", "quantitative-result": -3.03}
{"chain-sequence": "CAACAGCAAUAUUACGAUGA", "reported-endpoint": "self-splicing fitness (ln)", "quantitative-result": -1.53}
{"chain-sequence": "UAAGAGCAAUAUUACGGCGG", "reported-endpoint": "self-splicing fitness (ln)", "quantitative-result": -2.73}
{"chain-sequence": "CUUAAGCAAUAUUACGCCGG", "reported-endpoint": "self-splicing fitness (ln)", "quantitative-result": -4.01}
{"chain-sequence": "GCUUAGCAAUAUUACGAGGA", "reported-endpoint": "self-splicing fitness (ln)", "quantitative-result": -0.769}
